- assay_details: Oral bioavailability in C57BL/6 mouse at 1 mg/kg by LC/MS/MS analysis
- Format: ADME, organism-based
- assay_conditions: in vivo
Lab note: compare bioavailability against 20%. Equal or greater, write Criterion met. Smaller, write Criterion not met.

- compound: "FC(F)(F)Oc1ccc(CN2CCC3(CC2)OC(c2cc(Cl)cc(Cl)c2)c2cccnc23)cc1 (stereo not drawn)"
  classification: "Criterion met"
- compound: "CC(c1ccc(F)cn1)N1CCC2(CC1)OC(c1cc(Cl)ccn1)c1cccnc12 (racemic)"
  classification: "Criterion not met"
- compound: "FC(F)(F)Oc1ccc(CN2CCC3(CC2)OC(c2ccc(Cl)cn2)c2ccccc23)cc1 (racemic)"
  classification: "Criterion met"
- compound: "FC(F)(F)c1ccc(CN2CCC3(CC2)OC(c2cc(Cl)cc(Cl)c2)c2ccccc23)nc1 (racemic)"
  classification: "Criterion not met"
- compound: "CC(C)(O)C(c1ccccc1)N1CCC2(CC1)OC(c1cc(Cl)cc(Cl)c1)c1cccnc12 (racemic)"
  classification: "Criterion not met"
- compound: "FC(F)(F)Oc1ccc(CN2CCC3(CC2)OC(c2cc(Cl)cc(Cl)c2)c2ccncc23)cc1 (racemic)"
  classification: "Criterion met"
- compound: "CC(c1ccc(F)cn1)N1CCC2(CC1)OC(c1cc(Cl)cc(Cl)c1)c1cccnc12 (stereo not drawn)"
  classification: "Criterion not met"
- compound: "FC(F)(F)Oc1ccc(CN2CCC3(CC2)OC(c2ccccn2)c2ccccc23)cc1 (racemic)"
  classification: "Criterion met"

* * *

- assay_details: Half life in C57BL/6 mouse at 0.5 mg/kg, iv and 1 mg/kg, po by LC/MS/MS analysis
- Format: ADME, organism-based
- assay_conditions: in vivo
parameter: half-life (h)

- compound: "CC(c1ccc(F)cn1)N1CCC2(CC1)OC(c1cc(Cl)cc(Cl)c1)c1ccccc12 (racemic)"
  value_operator: "="
  number: 5.9
- compound: "CC(C)(c1ccc(OC(F)(F)F)cc1)N1CCC2(CC1)OC(c1cc(Cl)ccn1)c1cccnc12 (racemic)"
  value_operator: ">"
  number: 8
- compound: "CC(c1ccc(F)cn1)N1CCC2(CC1)OC(c1cc(Cl)ccn1)c1cccnc12 (racemic)"
  value_operator: "="
  number: 2.1
- compound: "Clc1cc(Cl)cc(C2OC3(CCN(Cc4ccc(N5CCCC5)cn4)CC3)c3ccccc32)c1 (racemic)"
  value_operator: "="
  number: 8.5
- compound: "CC(C)(O)C(c1ccccc1)N1CCC2(CC1)OC(c1cc(Cl)cc(Cl)c1)c1cccnc12 (racemic)"
  value_operator: "="
  number: 3.4
- compound: "O=S(=O)(c1ccc(C(F)(F)F)cn1)N1CCC2(CC1)OC(c1cc(Cl)cc[n+]1[O-])c1ccccc12 (racemic)"
  value_operator: "="
  number: 2.1
- compound: "O=S(=O)(c1ccc(OC(F)(F)F)cc1)N1CCC2(CC1)OC(c1cc(Cl)cc(Cl)c1)c1cccnc12 (racemic)"
  value_operator: "="
  number: 4.8
- compound: "FC(F)(F)c1ccc(CN2CCC3(CC2)OC(c2cc(Cl)cc(Cl)c2)c2ccccc23)nc1 (racemic)"
  value_operator: "="
  number: 4.1

* * *

- assay_details: Plasma concentration in established diet-induced obese wild type C57BL/6 mouse at 30 mg/kg, po qd for 5 days measured on day 6
- Assay type: ADME, organism-based
- Parameters: dose 30 mg/kg, route oral

- molecule: "FC(F)(F)Oc1ccc(CN2CCC3(CC2)OC(c2cc(Cl)ccn2)c2ccccc23)cc1 (stereo unspecified)"
  concentration at 120 h [µM]: 1.42

Entry source: ChEMBL document CHEMBL1949630
